Data credit: the supplement of paper PMC6992640

- System: UCD52 (cells of a triple-negative basal-like breast cancer xenograft)
- METHOD: cell viability of combination (% of vehicle); higher = less cytotoxic
- CONDITION PARAMETERS: 1 µM; 72 h; partner dose: 10 nM
Give measured cell viability of combination for each item. Keep answers brief.
One number for each entry.

# get_value(readout='cell viability of combination', item= COc1cccc2c1C(=O)c1c(O)c3c(c(O)c1C2=O)CC(O)(C(=O)CO)CC3OC1CC(N)C(O)C(C)O1.Cl (stereo unspecified) [Epirubicin HCl] + CN(C)C/C=C/C(=O)Nc1cc2c(Nc3ccc(F)c(Cl)c3)ncnc2cc1O[C@H]1CCOC1 [Afatinib] )
28

Another molecule to look at: COc1cc2nccc(Oc3ccc(NC(=O)C4(C(=O)Nc5ccc(F)cc5)CC4)cc3)c2cc1OC.O=C(O)CC(O)C(=O)O [Cabozantinib malate (XL184)] + CN(C)C/C=C/C(=O)Nc1cc2c(Nc3ccc(F)c(Cl)c3)ncnc2cc1O[C@H]1CCOC1 [Afatinib]
64.7

Another molecule to look at: CCN(CC)CCCC(C)Nc1ccnc2cc(Cl)ccc12.O=P(O)(O)O.O=P(O)(O)O (stereo unspecified) [Chloroquine diphosphate] + CN(C)C/C=C/C(=O)Nc1cc2c(Nc3ccc(F)c(Cl)c3)ncnc2cc1O[C@H]1CCOC1 [Afatinib]
48.5

Another molecule to look at: O=C(C=Cn1cnc(-c2cc(C(F)(F)F)cc(C(F)(F)F)c2)n1)NNc1cnccn1 + CN(C)C/C=C/C(=O)Nc1cc2c(Nc3ccc(F)c(Cl)c3)ncnc2cc1O[C@H]1CCOC1 [Afatinib]
52.2

Another molecule to look at: CCCCCCCCOc1ccccc1C(=O)Nc1ccc(C(=O)OCC[N+](C)(CC)CC)cc1.[Br-] [Otilonium Bromide] + CN(C)C/C=C/C(=O)Nc1cc2c(Nc3ccc(F)c(Cl)c3)ncnc2cc1O[C@H]1CCOC1 [Afatinib]
78.6

Can you give me cell viability of combination for all of these, one by one?
1. CN1CCN(CCOc2cc(OC3CCOCC3)c3c(Nc4c(Cl)ccc5c4OCO5)ncnc3c2)CC1 [Saracatinib (AZD0530)] + CN(C)C/C=C/C(=O)Nc1cc2c(Nc3ccc(F)c(Cl)c3)ncnc2cc1O[C@H]1CCOC1 [Afatinib]
2. CC1=C(C(=O)OC(C)C)C(c2cccc([N+](=O)[O-])c2)C(C(=O)OC2CN(C(c3ccccc3)c3ccccc3)C2)=C(N)N1 (stereo unspecified) [Azelnidipine] + CN(C)C/C=C/C(=O)Nc1cc2c(Nc3ccc(F)c(Cl)c3)ncnc2cc1O[C@H]1CCOC1 [Afatinib]
3. CCOC(=O)C1=C(COCCN)NC(C)=C(C(=O)OC)C1c1ccccc1Cl (stereo unspecified) [Amlodipine] + CN(C)C/C=C/C(=O)Nc1cc2c(Nc3ccc(F)c(Cl)c3)ncnc2cc1O[C@H]1CCOC1 [Afatinib]
4. COc1cc(Nc2ncc(F)c(Nc3ccc4c(n3)N(COP(=O)(O)O)C(=O)C(C)(C)O4)n2)cc(OC)c1OC [Fostamatinib (R788)] + CN(C)C/C=C/C(=O)Nc1cc2c(Nc3ccc(F)c(Cl)c3)ncnc2cc1O[C@H]1CCOC1 [Afatinib]
5. CCCCCOc1ccc(-c2ccc(-c3ccc(C(=O)N[C@H]4C[C@@H](O)[C@@H](O)NC(=O)[C@@H]5[C@@H](O)[C@@H](C)CN5C(=O)[C@H]([C@@H](C)O)NC(=O)[C@H]([C@H](O)[C@@H](O)c5ccc(O)cc5)NC(=O)[C@@H]5C[C@@H](O)CN5C(=O)[C@H]([C@@H](C)O)NC4=O)cc3)cc2)cc1 [Anidulafungin] + CN(C)C/C=C/C(=O)Nc1cc2c(Nc3ccc(F)c(Cl)c3)ncnc2cc1O[C@H]1CCOC1 [Afatinib]
6. CC1(C)Cc2c(-c3ccccc3)c(-c3ccc(Cl)cc3)c(CC(=O)O)n2C1 [Licofelone] + CN(C)C/C=C/C(=O)Nc1cc2c(Nc3ccc(F)c(Cl)c3)ncnc2cc1O[C@H]1CCOC1 [Afatinib]
7. Cl.O.O=C1Cc2cc(CCN3CCN(c4nsc5ccccc45)CC3)c(Cl)cc2N1 [Ziprasidone hydrochloride monohydrate] + CN(C)C/C=C/C(=O)Nc1cc2c(Nc3ccc(F)c(Cl)c3)ncnc2cc1O[C@H]1CCOC1 [Afatinib]
8. CCN(CC)CCNC(=O)c1c(C)[nH]c(C=C2C(=O)Nc3ccc(F)cc32)c1C.O=C(O)CC(O)C(=O)O [Sunitinib malate] + CN(C)C/C=C/C(=O)Nc1cc2c(Nc3ccc(F)c(Cl)c3)ncnc2cc1O[C@H]1CCOC1 [Afatinib]

1. 37.9
2. 52.3
3. 79.6
4. 74.9
5. 68.6
6. 72.7
7. 70.3
8. 43.6

Can you give me cell viability of combination for all of these, one by one?
1. COc1cc2c(Oc3ccc4[nH]c(C)cc4c3F)ncnc2cc1OCCCN1CCCC1 [Cediranib (AZD217)] + CN(C)C/C=C/C(=O)Nc1cc2c(Nc3ccc(F)c(Cl)c3)ncnc2cc1O[C@H]1CCOC1 [Afatinib]
2. COc1ccccc1OCCNCC(O)COc1cccc2[nH]c3ccccc3c12 (stereo unspecified) [Carvedilol] + CN(C)C/C=C/C(=O)Nc1cc2c(Nc3ccc(F)c(Cl)c3)ncnc2cc1O[C@H]1CCOC1 [Afatinib]
3. CC(CCC(=O)O)C1CCC2C3CCC4CC(O)CCC4(C)C3CCC12C (stereo unspecified) [Lithocholic Acid] + CN(C)C/C=C/C(=O)Nc1cc2c(Nc3ccc(F)c(Cl)c3)ncnc2cc1O[C@H]1CCOC1 [Afatinib]

1. 24.5
2. 59.2
3. 52.6
